target: wild-type human uPAR (human, UniProt Q03405 23-305, GPI-anchor on Gly283); assay: cell-based or functional assay
Sequence (Q03405 23-305): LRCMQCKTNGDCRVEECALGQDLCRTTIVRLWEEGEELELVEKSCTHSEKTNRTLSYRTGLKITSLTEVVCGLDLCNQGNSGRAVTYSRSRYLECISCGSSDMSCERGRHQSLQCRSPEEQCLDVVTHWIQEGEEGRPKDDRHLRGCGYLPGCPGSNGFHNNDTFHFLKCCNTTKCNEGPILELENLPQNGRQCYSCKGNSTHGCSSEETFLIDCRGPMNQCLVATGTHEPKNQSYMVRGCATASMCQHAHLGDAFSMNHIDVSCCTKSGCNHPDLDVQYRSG
# maps each entry to its % max inhibition (veh. pre-treat.)

>>> reported("13F6 (antibody, mouse IgG1, V domains shown) VH: ELVKPGASVELSCKASGYTFTSYWMNWVKQRPGRGLEWIGRIAPNSGGTQYSGKFKTKATLTVDKSSSTAYMQLSSLTSEDSAVYYCARGDYFGHFDYWGQGTTLTVS VL: SLSASLGGKVTITCKASQDINNYIAWYQHKPGKGPRLLIHYTSILQPGIPSRFSGSGSGRDYSFSISNLEPEDIATYYCLQCDNLLTFGAGTKLELK")
"< 20%"

Query :: Please look up its % max inhibition (veh. pre-treat.): AL6 (antibody, V domains shown) VH: ELMKPGASVKLSCKATGYSFTGYWIEWVKQRPGHGLEWIGEILPGSDRTNYNEKFKGKATFTADTSSNTAYMQLSSLTTEDSAIYYCARDDYDRGLYIMDYWGQGTSVTVS VL: SLSASLGERVSLTCRASQDIGTSLNWLQQEPDGTIRRLIYATSSLPPGVPKRFSGSRSGSDYSLTISSLESEDFVNYYCLQYATSPYTFGGGTKLEIKR
Result :: < 20%

Query :: Please look up its % max inhibition (veh. pre-treat.): 13D11 (antibody, V domains shown) VH: ELMKPGASVKLSCKATGYTFTDYWIEWVKQRPGHGLEWIGEILPGRDSTDYNENFKGKATFTADTSSNTAYMQLSSLTTEDSAIYYCARDYYGHISNWYFDVWGTGTTVTVS VL: SLSASLGERVSLTCRASQDIGSSLNWLQQEPDGTIKRLIYATSSLDSGVPKRFSGSRSGSDYSLTISSLESVDFVVYYCLQYATSPYTFGGGTKLEIKR
Result :: 38%
